Test system: delayed-type hypersensitivity to N-acetyltyrosine-3-azobenzene-4'-arsonic acid (ABA-N-Ac-Tyr)
assay_notes: Adjuvant activity: enhancement of induction of delayed-type hypersensitivity (skin reaction)
Assay type: in vivo
cond: guinea pig; 100 μg/animal compound with 50 μg ABA-N-Ac-Tyr in FIA into soles; 100 μg ABA-BSA intradermal two weeks later; read 24 hours after injection; mean ± SE
readout_name: Skin Reaction 24 Hours (diameter of erythema and induration) (mm)
Report only the number, with the unit mm understood.

// fetch Skin Reaction 24 Hours (diameter of erythema and induration) given entry CCCCS[C@@H]1O[C@H](CO)[C@@H](O)[C@H](O[C@H](C)C(=O)N[C@@H](C)C(=O)N[C@H](CCC(=O)OC)C(N)=O)[C@H]1NC(C)=O
14.5

// fetch Skin Reaction 24 Hours (diameter of erythema and induration) given entry CCCCCCCCCCCCCCCCSC1OC(CO)C(O)C(OC(C)C(=O)NC(C)C(=O)NC(CCC(=O)O)C(N)=O)C1NC(C)=O (centres unmarked)
15.6

// fetch Skin Reaction 24 Hours (diameter of erythema and induration) given entry CC(=O)NC1C(S)OC2COC(C)(C)OC2C1OC(C)C(=O)NC(C)C(=O)NC(CCC(=O)O)C(N)=O (centres unmarked)
16.9

// fetch Skin Reaction 24 Hours (diameter of erythema and induration) given entry CCCCCCCCCCCCCCCCSC1OC(CO)C(O)C(OC(C)C(=O)NC(C)C(=O)NC(CCC(=O)OC)C(N)=O)C1NC(C)=O (centres unmarked)
13.5

// fetch Skin Reaction 24 Hours (diameter of erythema and induration) given entry CCCCSC1OC(CO)C(O)C(OC(C)C(=O)NC(C)C(=O)NC(CCC(=O)O)C(N)=O)C1NC(C)=O (centres unmarked)
17.4

// fetch Skin Reaction 24 Hours (diameter of erythema and induration) given entry CCCCCCCCCCCCCCCC(=O)SC1OC2COC(C)(C)OC2C(OC(C)C(=O)NC(C)C(=O)NC(CCC(=O)O)C(N)=O)C1NC(C)=O (centres unmarked)
11.3

// fetch Skin Reaction 24 Hours (diameter of erythema and induration) given entry CC(=O)NC1C(S)OC(CO)C(O)C1OC(C)C(=O)NC(C)C(=O)NC(CCC(=O)O)C(N)=O (centres unmarked)
23.1

// fetch Skin Reaction 24 Hours (diameter of erythema and induration) given entry CCCCCCCCCCCCCCCC(=O)S[C@@H]1O[C@H](CO)[C@@H](O)[C@H](O[C@H](C)C(=O)N[C@@H](C)C(=O)N[C@H](CCC(=O)OC)C(N)=O)[C@H]1NC(C)=O
20.4
